assayName: Plasma protein binding
recordedConditions: % bound in human plasma
This section presents molecules with their documented Plasma Protein Binding values.
reportedEndpoint: Plasma Protein Binding (%)

[
  {
    "molecule": "COC(=O)Cn1nc(-c2ccc(C#N)cc2)c2ccccc21 [Compound 49835863]",
    "ltGtEq": "=",
    "observedResult": 92
  },
  {
    "molecule": "COC(=O)Cn1nc(C)c2ccccc21 [Compound 46856254]",
    "ltGtEq": "=",
    "observedResult": 42
  },
  {
    "molecule": "CN(C)C(=O)Cn1nc(-c2ccccc2)c2ccccc21 [Compound 49835882]",
    "ltGtEq": "=",
    "observedResult": 98
  },
  {
    "molecule": "COC(=O)Cn1nc(-c2ccccc2)c2ccc(C)cc21 [Compound 49835872]",
    "ltGtEq": "=",
    "observedResult": 98
  },
  {
    "molecule": "COC(=O)Cn1ncc2ccccc21 [Compound 49835852]",
    "ltGtEq": "<",
    "observedResult": 1.0
  },
  {
    "molecule": "COC(=O)Cn1nc(-c2ccccc2)c2ccc(OC)cc21 [Compound 49835812]",
    "ltGtEq": "=",
    "observedResult": 38
  },
  {
    "molecule": "COC(=O)Cn1nc(-c2ccccc2)c2cc(F)ccc21 [Compound 49835889]",
    "ltGtEq": ">",
    "observedResult": 96
  },
  {
    "molecule": "CC(C)OC(=O)Cn1nc(-c2ccccc2)c2ccccc21 [Compound 49835820]",
    "ltGtEq": "=",
    "observedResult": 99
  }
]

* * *

assayName: Plasma stability
recordedConditions: % remaining in human plasma after a 5-hour incubation
Catalogue of Plasma Stability readings, one per entry.
reportedEndpoint: Plasma Stability (%)

[
  {
    "cpdSmiles": "O=C(O)c1nn(Cc2ccc(Cl)cc2)c2ccccc12",
    "reportedEndpoint": "Plasma Stability",
    "ltGtEq": ">",
    "observedResult": 99
  },
  {
    "cpdSmiles": "COC(=O)CCn1nc(-c2ccccc2)c2ccccc21",
    "reportedEndpoint": "Plasma Stability",
    "ltGtEq": "=",
    "observedResult": 74
  },
  {
    "cpdSmiles": "COC(=O)[C@@H](C)n1nc(-c2ccccc2)c2ccccc21.COC(=O)[C@H](C)n1nc(-c2ccccc2)c2ccccc21",
    "reportedEndpoint": "Plasma Stability",
    "ltGtEq": "=",
    "observedResult": 61
  },
  {
    "cpdSmiles": "COC(=O)Cn1nc(-c2ccccc2)c2cc(C)ccc21",
    "reportedEndpoint": "Plasma Stability",
    "ltGtEq": "<",
    "observedResult": 1.0
  },
  {
    "cpdSmiles": "COC(=O)Cn1nc(-c2ccccc2)c2ccc(C(F)(F)F)cc21",
    "reportedEndpoint": "Plasma Stability",
    "ltGtEq": "=",
    "observedResult": 1.7
  }
]

* * *

Tested on: C. albicans CaCi-2
assayName: CaCi-2 growth inhibition in the presence of 8 μg/ml fluconazole (Alamar Blue)
Type: cell-based, Candida albicans
recordedConditions: Table 12; read-out: CaCi-2 IC50 with 8 μg/ml fluconazole
reportedEndpoint: IC50 (nM)

[
  {
    "molecule": "COC(=O)Cn1nc(-c2cccc(F)c2)c2ccccc21 [CID 49835858]",
    "valueUnit": "nM",
    "observedResult": 1400
  }
]

* * *

assayName: PBS solubility
recordedConditions: PBS, aqueous buffer
Use rule met when the recorded solubility is no lower than 500 µM; use rule not met when it is lower.

[
  {
    "cpdSmiles": "CCCNC(=O)Cn1nc(-c2ccccc2)c2cc(Cl)ccc21",
    "classLabel": "rule not met"
  },
  {
    "cpdSmiles": "COC(=O)Cn1nc(-c2cncnc2)c2ccccc21",
    "classLabel": "rule not met"
  },
  {
    "cpdSmiles": "O=C(Cn1nc(-c2ccccc2)c2cc(Cl)ccc21)N1CCOCC1",
    "classLabel": "rule not met"
  },
  {
    "cpdSmiles": "O=C(Cn1nc(C(=O)N2CCCCC2)c2ccccc21)N1CCOCC1",
    "classLabel": "rule met"
  },
  {
    "cpdSmiles": "COC(=O)Cn1c(-c2ccccc2)nc2ccccc21",
    "classLabel": "rule not met"
  },
  {
    "cpdSmiles": "O=C(O)c1nn(Cc2ccc(Cl)cc2)c2ccccc12",
    "classLabel": "rule met"
  },
  {
    "cpdSmiles": "COC(=O)Cn1nc(-c2cccc(F)c2)c2ccccc21",
    "classLabel": "rule not met"
  },
  {
    "cpdSmiles": "COC(=O)Cn1nc(-c2cccc(OC)c2)c2ccccc21",
    "classLabel": "rule not met"
  }
]

* * *

targetSystem: yeast (Saccharomyces cerevisiae)
Construct: Mitochondrial membranes were prepared from yeast; endogenous in cells
assayName: IC50 values and selectivity of Table 10A (target yeast, anti-target human cytochrome)
recordedConditions: target is yeast
pIC50: −log10 of the molar value.
reportedEndpoint: pIC50

[
  {
    "cpdSmiles": "COC(=O)Cn1nc(-c2ccccc2Cl)c2ccccc21",
    "observedResult": 6.12
  },
  {
    "cpdSmiles": "Cn1cc(Cn2nc(-c3ccccc3)c3ccccc32)nn1",
    "observedResult": 4.40
  },
  {
    "cpdSmiles": "COC(=O)Cn1nc(-c2cc(OCc3ccccc3)ccc2C)c2ccccc21",
    "observedResult": 6.10
  },
  {
    "cpdSmiles": "COC(=O)Cn1nc(-c2cccc(C(F)(F)F)c2)c2ccccc21",
    "observedResult": 7.40
  },
  {
    "cpdSmiles": "COC(=O)Cn1nc(-c2ccccc2)c2cc(C(F)(F)F)ccc21",
    "observedResult": 4.40
  }
]

* * *

assayName: IC50 values and selectivity of Table 10A (target yeast, anti-target human cytochrome)
Format: biochemical
pIC50: −log10 of the molar value.

[
  {
    "molecule": "COC(=O)Cn1nc(-c2cccc(OCc3ccccc3)c2)c2ccccc21 [Compound I-140]",
    "ltGtEq": "=",
    "pIC50": 6.40
  },
  {
    "molecule": "COC(=O)Cn1nc(-c2ccccc2)c2ccccc21 [Compound I-96]",
    "ltGtEq": "=",
    "pIC50": 6.22
  },
  {
    "molecule": "COC(=O)Cn1nc(-c2ccccc2)c2cccc(C)c21 [Compound I-82]",
    "ltGtEq": "=",
    "pIC50": 6.90
  },
  {
    "molecule": "c1ccc(-c2nn(Cc3nn[nH]n3)c3ccccc23)cc1 [Compound I-87]",
    "ltGtEq": "<",
    "pIC50": 3.80
  },
  {
    "molecule": "Cn1nnc(Cn2nc(-c3cc(OCCCC4CCCCC4)ccc3F)c3ccccc32)n1 [Compound I-102]",
    "ltGtEq": "=",
    "pIC50": 7.34
  },
  {
    "molecule": "c1ccc(-c2nn(Cc3nnco3)c3ccccc23)cc1 [Compound I-74]",
    "ltGtEq": "=",
    "pIC50": 5.52
  },
  {
    "molecule": "COC(=O)Cn1nc(-c2cc(OCc3ccccc3)ccc2F)c2ccccc21 [Compound I-136]",
    "ltGtEq": "=",
    "pIC50": 7.22
  },
  {
    "molecule": "COC(=O)Cn1nc(-c2ccccn2)c2ccccc21 [Compound I-120]",
    "ltGtEq": "=",
    "pIC50": 4.82
  },
  {
    "molecule": "Brc1cccnc1Cn1nc(-c2ccccc2)c2ccccc21 [Compound I-113]",
    "ltGtEq": "<",
    "pIC50": 3.92
  },
  {
    "molecule": "O=C(O)Cn1nc(-c2ccccc2)c2ccccc21 [Compound I-107]",
    "ltGtEq": "<",
    "pIC50": 3.92
  }
]

* * *

targetSystem: yeast (Saccharomyces cerevisiae)
Construct: Mitochondrial membranes were prepared from yeast; endogenous in cells
assayName: IC50 values and selectivity of Table 10A (target yeast, anti-target human cytochrome)
recordedConditions: target is yeast
reportedEndpoint: IC50 (nM)

[
  {
    "compound": "COC(=O)Cn1nc(-c2c(F)cccc2F)c2ccccc21 [Compound I-128]",
    "ltGtEq": "=",
    "observedResult": 500
  },
  {
    "compound": "N#Cc1ncccc1-n1nc(-c2ccccc2)c2ccccc21 [Compound I-112]",
    "ltGtEq": ">",
    "observedResult": 120000
  },
  {
    "compound": "Cc1cccc2c(-c3cc(C(F)(F)F)ccc3F)nn(Cc3cnccn3)c12 [Compound I-126]",
    "ltGtEq": "=",
    "observedResult": 94
  },
  {
    "compound": "COC(=O)Cn1nc(-c2cccc(F)c2)c2ccccc21 [Compound I-71]",
    "ltGtEq": "=",
    "observedResult": 250
  },
  {
    "compound": "COC(=O)Cn1nc(-c2c(C)cccc2C)c2ccccc21 [Compound I-127]",
    "ltGtEq": ">",
    "observedResult": 32000
  },
  {
    "compound": "COC(=O)Cn1nc(-c2ccccc2)c2c(C)cccc21 [Compound I-81]",
    "ltGtEq": "=",
    "observedResult": 1250
  },
  {
    "compound": "c1ccc(-c2nn(Cc3ncccn3)c3ccccc23)cc1 [Compound I-123]",
    "ltGtEq": ">",
    "observedResult": 120000
  },
  {
    "compound": "Fc1ccc(C(F)(F)F)cc1-c1nn(Cc2cnccn2)c2ccccc12 [Compound I-125]",
    "ltGtEq": "=",
    "observedResult": 59
  },
  {
    "compound": "Cn1nncc1Cn1nc(-c2ccccc2)c2ccccc21 [Compound I-95]",
    "ltGtEq": ">",
    "observedResult": 20000
  }
]

Origin of values: patent US9738610B2
